assay_system: 5-HT1A (Homo sapiens, UniProt P08908)
Construct: expressed in transfected cells; host or cells: CHO or HEK293
Sequence (P08908 whole entry): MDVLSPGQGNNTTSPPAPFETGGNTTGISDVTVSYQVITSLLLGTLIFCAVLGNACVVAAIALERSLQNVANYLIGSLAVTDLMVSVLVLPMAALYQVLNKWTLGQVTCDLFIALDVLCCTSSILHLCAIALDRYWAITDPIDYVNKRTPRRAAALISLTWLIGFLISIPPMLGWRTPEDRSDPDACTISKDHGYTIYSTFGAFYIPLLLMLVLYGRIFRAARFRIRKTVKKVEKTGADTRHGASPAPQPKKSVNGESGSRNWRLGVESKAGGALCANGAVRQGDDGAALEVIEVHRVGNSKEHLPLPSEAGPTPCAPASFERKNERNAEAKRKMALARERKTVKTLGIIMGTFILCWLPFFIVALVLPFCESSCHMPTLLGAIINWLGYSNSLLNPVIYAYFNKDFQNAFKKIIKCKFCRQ
assay_explanation: Radioligand displacement binding (3H-8-OH-DPAT)
assay_conditions: recombinant human receptor in CHO or HEK293; tracer 3H-8-OH-DPAT

{"chemical_structure": "COc1cccc(OC)c1OCCN1CCC(C(=O)NC(=O)Nc2cccc(C(F)(F)F)c2)CC1", "Ki": "> 1000 nM"}

---

assay_system: 5-HT2A (Homo sapiens)
Sequence (P28223 whole entry): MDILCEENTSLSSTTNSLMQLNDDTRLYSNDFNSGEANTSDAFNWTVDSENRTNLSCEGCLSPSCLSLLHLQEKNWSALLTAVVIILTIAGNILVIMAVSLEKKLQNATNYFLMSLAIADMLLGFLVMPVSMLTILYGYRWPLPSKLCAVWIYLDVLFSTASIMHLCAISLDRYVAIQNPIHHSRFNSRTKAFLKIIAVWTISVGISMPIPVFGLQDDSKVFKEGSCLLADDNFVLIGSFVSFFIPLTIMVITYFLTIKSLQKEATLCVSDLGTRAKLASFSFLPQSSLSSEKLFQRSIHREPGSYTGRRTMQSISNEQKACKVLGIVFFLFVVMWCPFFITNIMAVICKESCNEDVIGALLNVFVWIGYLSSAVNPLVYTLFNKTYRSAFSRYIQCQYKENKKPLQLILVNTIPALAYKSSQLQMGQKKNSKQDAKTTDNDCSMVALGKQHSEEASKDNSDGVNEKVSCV
assay_explanation: FLIPR functional assay, inhibition of the 5-HT-evoked peak response (primary screening and IC50 determination)
Type: cell-based
Set-up: expressed in transfected cells; host or cells: CHO
assay_conditions: CHO cells expressing 5-HT2A, 15 min pre-incubation, Ki calculated from IC50 (Cheng-Prusoff)

{"chemical_structure": "COc1cccc(OC)c1OCCN1CCC(C(=O)NC(=O)Nc2cccc(C(F)(F)F)c2)CC1", "Ki [nM]": 32.3}

---

assay_system: 5-HT1B (Homo sapiens, UniProt P28222)
Construct: expressed in transfected cells; host or cells: CHO or HEK293
Sequence (P28222 whole entry): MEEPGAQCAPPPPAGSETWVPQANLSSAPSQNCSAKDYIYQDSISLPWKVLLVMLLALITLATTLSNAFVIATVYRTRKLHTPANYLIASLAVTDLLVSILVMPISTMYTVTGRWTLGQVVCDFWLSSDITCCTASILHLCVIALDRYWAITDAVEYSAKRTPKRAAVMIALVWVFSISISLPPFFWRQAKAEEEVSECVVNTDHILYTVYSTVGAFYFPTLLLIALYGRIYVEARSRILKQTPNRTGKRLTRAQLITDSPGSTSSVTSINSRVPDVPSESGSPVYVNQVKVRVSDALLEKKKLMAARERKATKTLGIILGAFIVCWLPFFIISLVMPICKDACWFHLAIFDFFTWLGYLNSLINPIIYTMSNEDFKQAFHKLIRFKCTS
assay_explanation: Radioligand displacement binding (3H-LSD)
assay_conditions: recombinant human receptor in CHO or HEK293; tracer 3H-LSD
Protocol: The affinity constants of compounds were determined using recombinant human serotonin receptors stably expressed in fibroblast cell lines (CHO or HEK293), measuring the ability of the compounds to displace radio-labelled tracers using scintillation proximity assays or filter binding assays. […]

{"chemical_structure": "COc1cccc(OC)c1OCCN1CCC(C(=O)NC(=O)Nc2cccc(C(F)(F)F)c2)CC1", "Ki": "> 1000 nM"}

---

assay_system: 5-HT6 (Homo sapiens, UniProt P50406)
Construct: expressed in transfected cells; host or cells: CHO or HEK293
Sequence (P50406 whole entry): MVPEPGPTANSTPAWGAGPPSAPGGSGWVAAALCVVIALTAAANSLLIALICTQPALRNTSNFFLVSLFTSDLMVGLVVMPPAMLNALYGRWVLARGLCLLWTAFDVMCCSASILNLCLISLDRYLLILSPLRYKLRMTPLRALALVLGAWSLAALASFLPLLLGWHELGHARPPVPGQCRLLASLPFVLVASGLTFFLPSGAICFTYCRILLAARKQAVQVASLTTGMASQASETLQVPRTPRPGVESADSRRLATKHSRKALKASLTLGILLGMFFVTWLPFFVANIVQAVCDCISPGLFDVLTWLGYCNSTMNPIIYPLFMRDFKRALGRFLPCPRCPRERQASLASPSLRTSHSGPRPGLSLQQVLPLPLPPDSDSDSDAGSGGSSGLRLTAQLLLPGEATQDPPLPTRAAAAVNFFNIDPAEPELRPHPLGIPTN
assay_explanation: Radioligand displacement binding (3H-5-HT)
assay_conditions: recombinant human receptor in CHO or HEK293; tracer 3H-5-HT

{"chemical_structure": "COc1cccc(OC)c1OCCN1CCC(C(=O)NC(=O)Nc2cccc(C(F)(F)F)c2)CC1", "assay_system": "5-HT6 (Homo sapiens, UniProt P50406)", "Ki": "> 1000 nM"}
